target: Chromo domain-containing protein 1 (Saccharomyces cerevisiae (strain ATCC 204508 / S288c) (Baker's yeast)) (UniProt P32657); assay: ScCHD-1 Enzyme Inhibition Assay; assay type: functional; set-up: scale not given: in the data most compounds retested in dose-response had high values; details: 30 µM
Sequence (P32657 whole entry, the tested form may be a part): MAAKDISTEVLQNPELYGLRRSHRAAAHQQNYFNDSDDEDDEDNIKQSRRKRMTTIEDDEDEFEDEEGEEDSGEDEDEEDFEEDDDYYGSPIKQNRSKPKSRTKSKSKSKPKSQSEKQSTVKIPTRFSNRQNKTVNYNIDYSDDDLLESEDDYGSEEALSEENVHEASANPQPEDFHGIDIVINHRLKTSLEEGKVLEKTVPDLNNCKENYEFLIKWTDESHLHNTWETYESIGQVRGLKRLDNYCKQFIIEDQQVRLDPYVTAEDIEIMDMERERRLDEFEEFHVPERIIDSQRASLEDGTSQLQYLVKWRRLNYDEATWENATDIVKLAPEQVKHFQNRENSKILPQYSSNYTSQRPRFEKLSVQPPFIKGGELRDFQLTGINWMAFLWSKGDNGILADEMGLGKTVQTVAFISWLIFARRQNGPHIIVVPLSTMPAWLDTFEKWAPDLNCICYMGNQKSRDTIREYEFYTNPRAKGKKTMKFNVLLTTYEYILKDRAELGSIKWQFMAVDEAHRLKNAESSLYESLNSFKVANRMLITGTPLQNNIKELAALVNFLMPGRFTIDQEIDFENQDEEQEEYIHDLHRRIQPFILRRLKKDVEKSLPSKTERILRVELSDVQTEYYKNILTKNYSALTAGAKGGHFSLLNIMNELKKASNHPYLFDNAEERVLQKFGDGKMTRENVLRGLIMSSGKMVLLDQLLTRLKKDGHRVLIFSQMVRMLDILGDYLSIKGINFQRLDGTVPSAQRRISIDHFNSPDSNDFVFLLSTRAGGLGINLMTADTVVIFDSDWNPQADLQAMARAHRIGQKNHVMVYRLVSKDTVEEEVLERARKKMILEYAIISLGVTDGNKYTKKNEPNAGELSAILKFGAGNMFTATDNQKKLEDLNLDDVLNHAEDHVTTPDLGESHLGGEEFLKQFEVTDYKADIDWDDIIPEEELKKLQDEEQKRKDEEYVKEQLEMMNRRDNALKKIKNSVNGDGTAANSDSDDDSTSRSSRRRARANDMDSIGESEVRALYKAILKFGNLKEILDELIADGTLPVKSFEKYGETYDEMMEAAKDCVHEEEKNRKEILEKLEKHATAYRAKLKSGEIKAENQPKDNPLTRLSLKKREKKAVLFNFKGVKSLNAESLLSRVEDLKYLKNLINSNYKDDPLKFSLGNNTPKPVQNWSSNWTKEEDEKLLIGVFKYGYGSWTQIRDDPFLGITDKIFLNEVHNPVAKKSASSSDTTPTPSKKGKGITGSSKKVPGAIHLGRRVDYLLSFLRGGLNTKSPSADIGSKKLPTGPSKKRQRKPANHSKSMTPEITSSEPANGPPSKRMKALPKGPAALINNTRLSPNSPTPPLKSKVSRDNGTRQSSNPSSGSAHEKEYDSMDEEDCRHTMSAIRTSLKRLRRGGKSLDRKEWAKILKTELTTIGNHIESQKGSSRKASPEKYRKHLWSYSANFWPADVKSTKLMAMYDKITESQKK
endpointLabel: Percent Effect
Answer as a quantity: numeral, then unit.

Example entries and their recorded answers appear below.
molecule	Percent Effect
c1ccc2sc(CN3CCOC(Cn4cccn4)C3)nc2c1 (stereo unspecified)	-0.731%
Cc1ccc(=O)n(CC2(O)CCN(Cc3ccsc3)CC2)n1	-6.08%

Assign Percent Effect to the following record: `COc1ccc(CN(C)Cc2nc3c(cnn3C)c(=O)[nH]2)cc1OC` -3.45%

Annotate the molecule `Cc1ccc(C(=O)N2CCC(Oc3ccc(F)cc3F)CC2)c(=O)[nH]1` with its measured Percent Effect. -4.43%

Report Percent Effect for `Cc1nc(C(=O)N2CCC(Nc3cccnn3)CC2)cs1` -20.4%

Return value of Percent Effect for input `Cn1c(CN2CCN(CC3CC3)CC2)nnc1C1CCC1` , no commentary. -2.31%

Return Percent Effect (reported value) for this molecule: Cc1ccccc1CC1(CO)CCCN(c2ncccc2C#N)C1 (stereo unspecified) -1.78%

====

target: Sialic acid-binding Ig-like lectin 9 (Homo sapiens); experiment: Hs-Siglec9 ALPHAscreen SOP 20170721; design: scale not given: direction of the effect not stated beside the values; conditions: 10 µM
Listed here: items and their measured Percent Effect.
Answer with a number only, understood to be in %.

Below: 5 compounds and their reported Percent Effect.
compound	Percent Effect, %
NC(=O)COc1ccc(CNCc2ccc(F)c(F)c2)cc1	-0.752
O=C(NCC1CCOC1)c1cc(-c2cccc(Cl)c2)on1 (centres undefined)	3.45
Cc1ccc(NS(=O)(=O)c2cc3c(c(C(=O)O)c2)OCCO3)c(F)c1	15.9
CCOc1cccc(NS(=O)(=O)c2cc(C)c(C(=O)O)s2)c1	45.6
CC(C)(O)CN1CCN(C(=O)c2cc3ccccc3c(=O)[nH]2)CC1	-1.12

Please report the measured Percent Effect for Cc1nc(CNC(=O)NCC(O)c2cccc(Cl)c2)cs1 (centres undefined) 3.81

Annotate the compound `CC(C)N(C)Cc1nnc2n1CCN(Cc1ccncc1)CC2` with its measured Percent Effect. -4.03

Recall and state the measured Percent Effect for COc1ccc(CN2CCOC3(CCCN(c4nnc(C)o4)C3)C2)cc1 (centres undefined) . 6.97

Assign Percent Effect to the following record: `Cn1nc(CNC(=O)NCc2ccc(Cl)cc2)c2c1CCOC2` 7.81

Item CC(C)N1CCC(Cc2cc(-c3cccc(C(=O)O)c3)ncn2)C1 (centres undefined) : provide Percent Effect 4.36

Given the compound Cc1nc2n(n1)CC(NCc1cc(Cl)c3c(c1)OCCCO3)CC2 (centres undefined) , write its reported Percent Effect. 11.4

# return recorded Percent Effect for input `COc1ccc2c(c1)CN(Cc1nc3c(cnn3C)c(=O)[nH]1)CC2` 0.541

Give Percent Effect for CCCc1ncc(C(=O)N2CCOC(c3nc(C)n[nH]3)C2)s1 (centres undefined) 3.58

Name the recorded Percent Effect of the compound listed here: `c1sc(C2CCCC2)nc1CN1CCn2c(nnc2C2CC2)C1` -3.09

Please supply the value of reported Percent Effect for the item CN(C)CC1CSCCCN1C(=O)Nc1ccc(C(C)(C)C)cc1 (centres undefined) 12.9

Fill in Percent Effect for record `COc1ccc(CN2CCn3cc(CN4CCCCC4)nc3C2)cc1` -4.04

Respond only with Percent Effect recorded for `CC(C)Sc1nnc(CCNC(=O)OC(C)(C)C)o1` 0.92

Provide only the value of recorded Percent Effect for `Cc1ncsc1C(=O)NC1CCN(CC(=O)NCc2ccccc2)CC1` 1.72

# return recorded Percent Effect for input `O=C(CCc1nccs1)N1CCN(c2cccnn2)CC1` 3.62

Hello, please tell me recorded Percent Effect for this one: Cc1nc(CN2CCOC(c3nc(C(C)C)n[nH]3)C2)oc1C (centres undefined) 7.38

Output Percent Effect of Cc1cc2c(cc1C)C(NCc1nnc3n1CCCCC3)CCCO2 (centres undefined) 10.2

For the compound `CCN1C[C@H]2CCN(C(=O)NC3CCCC3)CC[C@H]2S1(=O)=O` , report Percent Effect. -7.67

Read off the recorded Percent Effect for CCn1ncnc1C(C)NC(=O)C1CCN(C(C)C)CC1 (centres undefined) 22.1

For the compound CC(C)c1nc(N2CC(N3CCCCC3C)C2)c2cnn(C)c2n1 (centres undefined) , report Percent Effect. -2.38

====

Percent Effect for assorted compounds
target: Chromo domain-containing protein 1 (Saccharomyces cerevisiae (strain ATCC 204508 / S288c) (Baker's yeast)) (UniProt P32657); assay: ScCHD-1 Enzyme Inhibition Assay; format: functional; set-up: scale not given: in the data most compounds retested in dose-response had high values; settings: 30 µM
I only need the number, in %, no unit after it.

Please review the entries below; each comes with its answer.
compound	Percent Effect [%]
CCn1ccnc1CN1CCN(CC(=O)NC(=O)NC2CC2)CC1	-6.48
CC(=O)N1CCC2(CC1)CC[C@@]1(C(=O)N(C)C)CN(S(C)(=O)=O)C[C@@H]21	-8.55
CN1CC(=O)N(c2cnn(C)c2)CC12CCN(Cc1nccn1C)C2 (centres undefined)	-4.89
CNS(=O)(=O)c1ccc(CNC(=O)NCC2CCOC2)cc1 (centres undefined)	-9.18
O=C(NCc1cccnc1)C1=NOC2(CCN(S(=O)(=O)C3CC3)C2)C1 (centres undefined)	-6.85

Complete the entry with Percent Effect for Cc1nccn1CCC1CCCCN1Cc1ccncc1 (centres undefined) -6.06

Give recorded Percent Effect. `CC(C)NC(=O)CS(=O)(=O)Cc1cc(Cl)c2c(c1)OCCO2` -5.39

Give the reported value of Percent Effect for this record: `CN(C)[C@@H]1CCN(c2ncccn2)[C@H]1Cc1ccccc1` 1.34

Give the reported Percent Effect for this compound. CCNC(=O)N(C)C(c1cccc(F)c1)c1ccccn1 (centres undefined) -6.09

====

target: Ubiquitin-activating enzyme e1, putative (Leishmania donovani (strain BPK282A1)) (UniProt E9BSI1); assay: Leishmania donovani Ubiquitin Activating Enzyme (LdE1); format: functional; design: scale not given: direction of the effect not stated beside the values; settings: 30 µM
Measured potencies and affinities stand elsewhere.
Percent Effect reference

Name the recorded Percent Effect of the compound listed here: `O=C1COC2(CCN(Cc3ccoc3)CC2)CN1c1ccsc1` 18.7%

Using known records, supply Percent Effect for `CCOc1ccc(C#N)cc1NCC(=O)Nc1cc(C)no1` 17.7%

Report measured Percent Effect; entry is Cc1ccc(CNCc2nnc3n2CCCC3C(F)(F)F)o1 (configuration not stated) 5.33%

Could you please provide reported Percent Effect for `c1ccc(-c2nnc(CNCCn3cccn3)o2)cc1` ? Thanks! -10.1%

Report measured Percent Effect; entry is CCN(CC)C(=O)CCNC(=O)N1CCC(c2ccccc2)C1 (configuration not stated) 0%

Hello, please tell me recorded Percent Effect for this one: `COc1ccc(-c2nnc(SCC(=O)NCC(C)C)[nH]2)c(OC)c1` 18.4%

Indicate its recorded Percent Effect; the compound in question is `CC(C)(C)OC(=O)N1CCN(C(=O)c2sccc2C2CC2)CC1` 8.86%

====

Parameter: Percent Effect. Scope: all listed entries.
target: AMP-activated protein kinase, AMPK (Homo sapiens) (UniProt P54646+O43741+P54619+Q9UGJ0+Q9Y478+Q13131+Q9UGI9); experiment: AMP-dependent Kinase enzyme assay. An in vitro enzyme assay that detects ADP turnover that is directly proportional to AMPK activity. This uses naive AMPK that is activated during the assay with MK-8722; assay type: functional; parameters: scale not given: direction of the effect not stated beside the values; settings: 30 µM
Number only, in %; omit the unit.

Before answering, review these 2 worked examples.
compound	Percent Effect [%]
COc1cccc(COCC(=O)N2CCCC(c3nncn3C)C2)c1 (configuration not stated)	-6.54
CCCN1CCN(C(=O)C(C)n2cc(Br)cn2)CC1 (configuration not stated)	5.22

Supply recorded Percent Effect for COc1ccc(NC(=O)N2CCCC2c2ccco2)cc1OC (configuration not stated) here. 7.21

In one line, give reported Percent Effect of the entry COc1ccc(Oc2cncc(C3CCCN3C(C)=O)n2)cc1 (configuration not stated) . 4.91

Determine from records and report Percent Effect for CC1CN(C(=O)c2ccn(-c3cccc(Cl)c3)n2)CCO1 (configuration not stated) 0.341

Recall and state the measured Percent Effect for COc1ccc(CCNC(=O)C2CCC(Cn3cnnn3)CC2)cc1 (configuration not stated) . 15.9

====

Target: Ubiquitin-activating enzyme e1, putative (Leishmania donovani (strain BPK282A1)) (UniProt E9BSI1)
Sequence (whole entry): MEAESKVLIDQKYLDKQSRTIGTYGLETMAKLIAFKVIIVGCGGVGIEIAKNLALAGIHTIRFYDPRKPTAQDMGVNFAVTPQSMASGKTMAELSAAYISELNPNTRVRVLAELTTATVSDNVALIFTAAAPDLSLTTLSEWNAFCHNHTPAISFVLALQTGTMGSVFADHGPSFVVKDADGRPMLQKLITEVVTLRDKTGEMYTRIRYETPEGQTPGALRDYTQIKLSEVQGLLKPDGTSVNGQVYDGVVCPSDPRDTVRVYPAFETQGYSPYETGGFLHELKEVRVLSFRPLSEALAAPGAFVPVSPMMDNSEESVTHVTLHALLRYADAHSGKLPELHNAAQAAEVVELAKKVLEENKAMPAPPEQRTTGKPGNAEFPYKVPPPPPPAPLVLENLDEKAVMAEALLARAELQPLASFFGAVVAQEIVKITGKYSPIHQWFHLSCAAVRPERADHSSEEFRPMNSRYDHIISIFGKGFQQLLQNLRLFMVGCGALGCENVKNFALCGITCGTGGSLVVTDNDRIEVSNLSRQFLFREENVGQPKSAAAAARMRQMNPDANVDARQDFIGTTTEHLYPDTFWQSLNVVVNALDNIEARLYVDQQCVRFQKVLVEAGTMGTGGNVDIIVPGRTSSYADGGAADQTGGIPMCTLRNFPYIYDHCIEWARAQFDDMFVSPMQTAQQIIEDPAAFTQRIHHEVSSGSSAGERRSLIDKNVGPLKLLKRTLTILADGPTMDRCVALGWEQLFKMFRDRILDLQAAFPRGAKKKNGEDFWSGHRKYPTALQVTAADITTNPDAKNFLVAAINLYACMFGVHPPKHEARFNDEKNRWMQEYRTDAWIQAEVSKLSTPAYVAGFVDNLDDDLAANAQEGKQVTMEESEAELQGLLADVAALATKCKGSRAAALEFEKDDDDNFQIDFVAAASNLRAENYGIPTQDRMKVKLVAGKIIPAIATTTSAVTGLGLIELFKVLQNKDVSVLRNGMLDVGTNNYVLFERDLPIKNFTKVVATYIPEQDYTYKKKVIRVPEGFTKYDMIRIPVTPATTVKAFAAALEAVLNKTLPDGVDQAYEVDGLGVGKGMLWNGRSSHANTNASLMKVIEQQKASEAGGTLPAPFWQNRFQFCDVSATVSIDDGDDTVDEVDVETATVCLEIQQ
Experiment: Leishmania donovani Ubiquitin Activating Enzyme (LdE1)
Format: functional
Design: scale not given: direction of the effect not stated beside the values
Details: 30 µM
Measured potencies and affinities stand elsewhere.
Hi, to clarify the labels: yes covers Percent Effect from 3% upward, no covers anything below 3%.

Textbook exercise: given the entry Cc1noc(C)c1C(=O)NCC(c1ccc(F)cc1)N(C)C (stereo unspecified) , state whether its Percent Effect is greater than or equal to 3%. yes
